Values from PubChem BioAssay (NCI)

System: KM12 colon
Experiment: NCI tumour cell line growth inhibition, 48 h
Recorded TGI for the following compounds
experimental.readout: TGI

INSERT INTO results (compound, experimental_readout, observed) VALUES
  ('COc1ccc(CN2C(=O)/C(=C\C(=O)c3ccc(OCCN4CCCCC4)cc3)c3ccccc32)cc1', 'TGI', '28.6 µM'),
  ('CC(C)N(C(=O)C12C3C4C5(C#N)C3C1(C#N)C5C42I)C(C)C (centres undefined)', 'TGI', '> 100 µM'),
  ('C[N+](CCCl)(CCCl)Cc1cccc2cccc([N+](=O)[O-])c12', 'TGI', '> 100 µM'),
  ('COC(=O)CCC1=CCC2(SC)C(=O)Nc3cccc1c32 (centres undefined)', 'TGI', '> 100 µM'),
  ('O=C1NC(NNc2ccccc2)=N/C1=C\c1ccccc1O', 'TGI', '> 100 µM'),
  ('COCC1OC(Sc2ccccc2)C(O)C(OC)C1OC (centres undefined)', 'TGI', '> 100 µM'),
  ('CCOC(=O)CCCn1c(SC)nc2[nH]cc(-c3ccccc3)c2c1=O', 'TGI', '38.2 µM'),
  ('CN(C)CCCNC(=O)c1cc2[nH]c3c(cnc4ccc([N+](=O)[O-])cc43)c(=O)c2n1C', 'TGI', '25.2 µM'),
  ('COC(=O)C1=C(C)NC2=C(C(=O)c3ccccc32)C1c1cn(-c2ccccc2)nc1-c1ccccc1 (centres undefined)', 'TGI', '> 100 µM'),
  ('CCCCCCCCCCCCOC1C(C(COC2OC(C3COC(C)(C)O3)C3OC(C)(C)OC23)NC(=O)Nc2ccc(C(=O)O)cc2)OC2OC(C)(C)OC21 (centres undefined)', 'TGI', '4.36 µM'),
  ('CCCCCCNC(=O)c1cc(NCc2cc(O)ccc2O)ccc1O', 'TGI', '29 µM'),
  ('CN(C)c1nc2ccccc2[nH]1', 'TGI', '> 100 µM'),
  ('CC1=C(C(=O)Nc2ccccc2)C(c2ccccc2)C(C(=O)Nc2ccccc2)=C(C)N1', 'TGI', '> 100 µM'),
  ('Cn1c2ccccc2c2c3c(c4c5cc(Br)ccc5n(C)c4c21)C(=O)N(O)C3=O', 'TGI', '> 100 µM'),
  ('OCCCCCCCCCCCOc1ccc(C2OCC3(CO2)COC(c2ccc(OCCCCCCCCCCCO)cc2)OC3)cc1 (centres undefined)', 'TGI', '> 50 µM'),
  ('O=c1cnn(C/C=C/CBr)c(=O)[nH]1', 'TGI', '32.7 µM'),
  ('CO/N=C/c1cc(OC)c(OC)c(OC)c1', 'TGI', '> 100 µM'),
  ('CCN(CC)c1ccc2c(c1)OC(N)=C(C#N)C2c1cc(OC)c2c(c1)OCO2 (centres undefined)', 'TGI', '0.603 µM'),
  ('O=C(O)c1ccc(N=C(C(=Nc2ccc(C(=O)O)cc2)c2ccccc2)c2ccccc2)cc1', 'TGI', '> 100 µM'),
  ('Cc1ccc(Cc2c(=O)[nH]nc3ccccc23)cc1', 'TGI', '> 100 µM'),
  ('CN(CC(=O)O)c1ncc2c(n1)-c1ccccc1SC2', 'TGI', '> 100 µM'),
  ('Nc1c2c(nc3cc(F)c(F)cc13)CCC2', 'TGI', '> 100 µM'),
  ('Cc1cc(N)c(C)c2c1[nH]c1ccc(O)cc12', 'TGI', '> 100 µM'),
  ('OCC1OC(c2cccc3cc(O)c(O)cc23)CC1O (centres undefined)', 'TGI', '> 100 µM'),
  ('Nc1ccc(-c2nc3cc(F)ccc3s2)cc1Cl', 'TGI', '> 100 µM'),
  ('CCc1cc2c(oc3cc4ccccc4cc32)c(=O)[nH]1', 'TGI', '> 10 µM'),
  ('Nc1ccc(Oc2ccc(C34CC5CC6C3CC3CC4C(C5)C6(c4ccc(Oc5ccc(N)cc5)cc4)C3)cc2)cc1', 'TGI', '> 100 µM'),
  ('Cc1ccc(NC(=O)C(=O)C(C(=O)c2ccc3ccccc3c2)C2OC(=O)c3ccccc32)cc1C (centres undefined)', 'TGI', '47.1 µM'),
  ('Nc1ncnc2c1ccn2C/C=C\CO', 'TGI', '> 100 µM'),
  ('CC(C)c1ccc2c(c1)CC[C@@H]1[C@@](C)(C(=O)O)CCC[C@]21C', 'TGI', '19.5 µM'),
  ('CNC(=O)N(C)N=NCCCl', 'TGI', '> 100 µM'),
  ('Cc1c([N+](=O)[O-])ccc2c(NCCCN(C)C)ccnc12', 'TGI', '32.1 µM'),
  ('COc1ccc(C2COc3cc(OC(C)=O)c(OC(C)=O)cc3C2)cc1 (centres undefined)', 'TGI', '34 µM'),
  ('COc1cc(C(=O)n2c3ccc(Br)cc3c3nc4ccccc4nc32)cc(OC)c1OC', 'TGI', '> 100 µM');
